# test_summary: log P by HPLC on reversed phase columns (Method L0; [a] acidic, [b] neutral range)
One threshold, 4, splits the recorded chromatographic logP values: lower ones are fulfilled, equal or higher ones are not fulfilled.

The examples below pair each entry with its known result.
# compound, group
rows = [
    ("Cc1nn2c(C(C)C)c(C(=O)N[C@H]3CCOc4ccccc43)cnc2c1-c1c(F)cccc1F", "not fulfilled"),
    ("COc1cc(-c2c(C)nn3c(C(C)C)c(C(=O)N[C@H]4CCOc5ccccc54)cnc23)ccc1F", "not fulfilled"),
    ("CCOCc1cccc(-c2c(C)nn3c(C(C)C)c(C(=O)N[C@H]4CCc5ccccc54)cnc23)c1", "not fulfilled"),
]

Would you kindly look at the next entry?
**Query** Consider Cc1nn2c(N3CCOCC3)c(C(=O)N[C@H]3CCOc4ccccc43)cnc2c1-c1cccc(F)c1F . Does its chromatographic logP lie strictly below 4?
**Result** not fulfilled

---

// reported pE50 for each item listed
# target_or_test_system: UniProt Q95V25
# test_summary: In vitro assay 1: C. elegans Slo-1a, action at a recombinant C. elegans CHO cell line (membrane potential measurement)
# test_conditions: CHO cells expressing C. elegans Slo-1a; voltage sensitive dye, FLIPR Tetra; negative decadic logarithm of EC50

# compound, assay_result
rows = [
    ("Cc1nn2c(C(C)C)c(C(=O)N[C@H]3CCOc4ccc(Cl)cc43)cnc2c1-c1ccccc1Cl", 7),
    ("Cc1nn2c(C(C)C)c(C(=O)N[C@H]3CCc4ccccc43)cnc2c1-c1cnn(CC(F)(F)F)c1", 8),
    ("COc1c(F)ccc(-c2c(C)nn3c(C4CC4)c(C(=O)N[C@H]4CCOc5ccccc54)cnc23)c1F", 9.1),
]

Now let's try a different one.
**Query** Look up pE50: CCc1c(C(=O)N[C@H]2CCOc3ccccc32)cnc2c(-c3cc(Cl)c(F)c(Cl)c3)c(C)nn12
**Result** 8

---

# test_summary: log P by HPLC on reversed phase columns (Method L0; [a] acidic, [b] neutral range)
property: chromatographic logP
// return a plain number; no unit text

# compound, chromatographic logP
records = [
    ("CC(C)c1c(C(=O)N[C@H]2CCc3ccccc32)cnc2c(-c3cc(F)c(F)c(F)c3)c(C(F)(F)F)nn12", 5.4),
    ("Cc1nn2c(C(C)C)c(C(=O)N[C@H]3CCOc4ccccc43)cnc2c1-c1cc(Cl)ccc1Cl", 5),
    ("Cc1nn2c(C3CC3)c(C(=O)N[C@H]3CCOc4ccccc43)cnc2c1-c1cccc(F)c1", 3.71),
    ("Cc1nn2c(C(C)C)c(C(=O)N[C@H]3CCOc4ccccc43)cnc2c1-c1cnccc1Cl", 3.9),
]

**Query** Please look up its chromatographic logP: COc1cccc(-c2c(C)nn3c(C4CC4)c(C(=O)N[C@H]4CCc5ccccc54)cnc23)c1
**Result** 3.74

**Query** // repeat for Cc1nn2c(C(C)C)c(C(=O)N[C@H]3CCOc4ccccc43)cnc2c1-c1c(F)cc(Cl)cc1F and report
**Result** 4.82

**Query** Try the molecule Cc1nn2c(C(C)C)c(C(=O)N[C@H]3CCOc4ccccc43)cnc2c1-c1ccc2c(c1)OC(F)(F)O2
**Result** 5.03

---

List of pE50 values.
# target_or_test_system: C. elegans Slo-1a (Caenorhabditis elegans)
# test_summary: In vitro assay 1: C. elegans Slo-1a, action at a recombinant C. elegans CHO cell line (membrane potential measurement)
# test_conditions: CHO cells expressing C. elegans Slo-1a; voltage sensitive dye, FLIPR Tetra; negative decadic logarithm of EC50
Lab note: jot the number down without any unit.

# compound, pE50
measured = [
    ("Cc1nn2c(C(C)C)c(C(=O)N[C@H]3CCc4ccccc43)cnc2c1-c1ccc(Cl)cc1", 7.5),
    ("CC(C)c1c(C(=O)N[C@H]2CCOc3ccccc32)cnc2c(-c3c(F)cccc3Cl)c(C(F)F)nn12", 8.1),
    ("Cc1nn2c(C(C)C)c(C(=O)N[C@H]3CCOc4ccccc43)cnc2c1-c1ccc(C(F)(F)F)c(F)c1", 7.9),
]

**Query** Data request, read-out pE50, for O=C(N[C@H]1CCOc2ccccc21)c1cnc2c(-c3ccc(F)c(F)c3F)c(C(F)F)nn2c1C1CC1
**Result** 8.3

**Query** And for Cc1ccc2c(c1)[C@@H](NC(=O)c1cnc3c(-c4ccccc4Cl)c(C)nn3c1C(C)C)CCC2 ?
**Result** 7.2

**Query** Another molecule to check: CCc1c(C(=O)N[C@H]2CCOc3ccccc32)cnc2c(-c3cc(Cl)ccc3Cl)c(C)nn12
**Result** 8.4

---

Recorded EC50 by entry
# target_or_test_system: C. elegans Slo-1a (Caenorhabditis elegans, UniProt Q95V25)
# Sequence (Q95V25 whole entry): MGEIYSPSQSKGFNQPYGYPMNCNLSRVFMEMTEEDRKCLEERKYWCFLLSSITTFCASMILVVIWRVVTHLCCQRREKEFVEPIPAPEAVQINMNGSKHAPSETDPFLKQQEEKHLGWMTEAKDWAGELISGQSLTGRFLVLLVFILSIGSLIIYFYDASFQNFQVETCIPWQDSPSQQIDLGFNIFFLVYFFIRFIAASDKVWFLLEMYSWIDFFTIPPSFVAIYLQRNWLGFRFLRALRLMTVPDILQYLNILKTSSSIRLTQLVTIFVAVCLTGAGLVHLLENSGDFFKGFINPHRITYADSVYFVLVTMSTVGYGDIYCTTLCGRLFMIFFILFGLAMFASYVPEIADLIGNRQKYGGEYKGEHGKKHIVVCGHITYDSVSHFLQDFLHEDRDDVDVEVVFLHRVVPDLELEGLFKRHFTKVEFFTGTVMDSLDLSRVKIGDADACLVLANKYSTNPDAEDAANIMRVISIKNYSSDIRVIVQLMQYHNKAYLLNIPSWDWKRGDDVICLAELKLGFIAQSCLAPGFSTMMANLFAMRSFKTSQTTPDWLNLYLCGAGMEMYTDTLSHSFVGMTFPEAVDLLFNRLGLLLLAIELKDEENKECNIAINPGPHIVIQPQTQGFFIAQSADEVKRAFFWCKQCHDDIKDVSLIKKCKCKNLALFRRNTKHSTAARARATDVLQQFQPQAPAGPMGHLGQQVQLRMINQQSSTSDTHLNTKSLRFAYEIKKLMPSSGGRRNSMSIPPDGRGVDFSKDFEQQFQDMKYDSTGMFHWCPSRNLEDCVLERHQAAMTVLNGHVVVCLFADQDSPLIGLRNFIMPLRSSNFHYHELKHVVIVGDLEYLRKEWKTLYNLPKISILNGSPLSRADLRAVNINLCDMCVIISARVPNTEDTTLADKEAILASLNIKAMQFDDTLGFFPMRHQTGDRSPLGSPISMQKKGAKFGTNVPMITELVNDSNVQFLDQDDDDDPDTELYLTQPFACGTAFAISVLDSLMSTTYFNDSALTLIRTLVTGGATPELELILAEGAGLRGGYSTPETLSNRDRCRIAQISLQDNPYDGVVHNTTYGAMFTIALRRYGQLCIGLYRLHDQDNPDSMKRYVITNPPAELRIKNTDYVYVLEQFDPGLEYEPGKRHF
# test_summary: In vitro assay 1: C. elegans Slo-1a, action at a recombinant C. elegans CHO cell line (membrane potential measurement)
Remember to quote the unit after the number.

# compound, EC50
measured = [
    ("Cc1nn2c(C(C)C)c(C(=O)N[C@H]3CCc4ccccc43)cnc2c1-c1ccc(C#N)c(C(F)(F)F)c1 [Example 293]", "316 nM"),
    ("Cc1nn2c(C3CC3)c(C(=O)N[C@H]3CCc4ccccc43)cnc2c1-c1ccc(F)c(F)c1 [Example 358]", "12.6 nM"),
    ("COc1cc(Cl)cc(-c2c(C)nn3c(C(C)C)c(C(=O)N[C@H]4CCOc5ccccc54)cnc23)c1 [Example 403]", "158 nM"),
    ("Cc1nn2c(C(C)C)c(C(=O)N[C@H]3CCc4ccccc43)cnc2c1-c1cccc(F)c1F [Example 141]", "7.94 nM"),
    ("Cc1nn2c(C(C)C)c(C(=O)N[C@H]3CCc4ccccc43)cnc2c1-c1cccc(NC(=O)C(F)(F)F)c1 [Example 315]", "251 nM"),
    ("Cc1nn2c(C(C)C)c(C(=O)N[C@H]3CCOc4ccccc43)cnc2c1-c1cnn(CC2CC2)c1 [Example 419]", "7.94 nM"),
    ("CC(C)c1c(C(=O)N[C@H]2CCc3ccccc32)cnc2c(-c3cc(Cl)cc(C(F)(F)F)c3)c(C(F)(F)F)nn12 [Example 150]", "50.1 nM"),
    ("Cc1nn2c(C3CC3)c(C(=O)N[C@H]3CCc4ccccc43)cnc2c1-c1c(F)cc(F)cc1F [Example 438]", "1.26 nM"),
]

**Query** Which EC50 value is on record for CC(C)c1c(C(=O)N[C@H]2CCc3ccccc32)cnc2c(-c3cc(Cl)cc(Cl)c3)c(S(C)(=O)=O)nn12 [Example 229] ?
**Result** 63.1 nM

**Query** Would you mind doing COc1cccc(-c2c(C)nn3c(C(C)C)c(C(=O)N[C@H]4CCc5ccccc54)cnc23)n1 [Example 177] as well?
**Result** 158 nM

**Query** Same read-out for Cc1nn2c(C(C)C)c(C(=O)N[C@H]3CCOc4ccccc43)cnc2c1-c1ccc(F)c(F)c1F [Example 166] ?
**Result** 1.58 nM

**Query** Param item: COc1cccc(-c2c(C)nn3c(C(C)C)c(C(=O)N[C@H]4CCOc5ccccc54)cnc23)c1Cl [Example 247]
**Result** 10 nM

**Query** Would you kindly repeat that for Cc1nn2c(N(C)C)c(C(=O)N[C@H]3CCOc4ccccc43)cnc2c1-c1cc(Cl)cc(Cl)c1 [Example 520] ?
**Result** 7.94 nM

**Query** Try this compound next: Cc1nn2c(C(C)C)c(C(=O)N[C@H]3CCc4ccccc43)cnc2c1-c1cccc(Br)c1 [Example 205]
**Result** 25.1 nM

**Query** Same question, CC(C)c1c(C(=O)N[C@H]2CCc3ccccc32)cnc2c(-c3ccccc3Cl)c(Cl)nn12 [Example 79] this time
**Result** 20 nM

---

# target_or_test_system: C. elegans Slo-1a (Caenorhabditis elegans, UniProt Q95V25)
# test_summary: In vitro assay 1: C. elegans Slo-1a, action at a recombinant C. elegans CHO cell line (membrane potential measurement)
property: EC50 (nM)
Give just the numeric value; nM need not be written.

**Query** # get_value(readout='EC50', item= Cc1nn2c(C)c(C(=O)N[C@H]3CCCc4ccccc43)cnc2c1-c1cccc(Cl)c1 [Example 46] )
**Result** 251

**Query** Ok, now Cc1nn2c(C(C)C)c(C(=O)N[C@H]3CCOc4ccccc43)cnc2c1-c1cccc(F)c1Cl [Example 191]
**Result** 1.26

**Query** Entry Cc1nn2c(C3CC3)c(C(=O)N[C@H]3CCOc4ccccc43)cnc2c1-c1cnn(CC2CC2)c1 [Example 470] please
**Result** 7.94

**Query** Repeat for the following compound: Cc1nn2c(C(C)C)c(C(=O)N[C@H]3CCCc4ccccc43)cnc2c1-c1cc(Cl)ccc1Cl [Example 172]
**Result** 10

**Query** Another compound to check: Cc1nn2c(C(C)C)c(C(=O)N[C@H]3CCc4ccccc43)cnc2c1-c1cncc(Cl)c1 [Example 314]
**Result** 15.8

**Query** Also, CC(C)c1c(C(=O)N[C@H]2CCc3ccccc32)cnc2c(-c3c(F)cc(F)cc3F)c(C(F)(F)F)nn12 [Example 133] please.
**Result** 79.4

**Query** Then Cc1nn2c(C(C)C)c(C(=O)N[C@H]3CCCc4ccccc43)cnc2c1-c1cnn(CC2CC2)c1 [Example 420] ?
**Result** 7.94

**Query** What do you have for Cc1nn2c(C(C)C)c(C(=O)NC3COc4ccccc43)cnc2c1-c1c(F)cccc1F (stereo not drawn) [Example 210] ?
**Result** 158

**Query** How about Cc1nn2c(C(C)C)c(C(=O)N[C@H]3CCCc4ccccc43)cnc2c1-c1cccc2c1OC(F)(F)O2 [Example 146] ?
**Result** 25.1

**Query** Try the compound Cc1nn2c(C3CC3)c(C(=O)N[C@H]3CCOc4ccccc43)cnc2c1-c1ccc(F)cc1Cl [Example 475]
**Result** 2

**Query** Let us now turn to COCCn1cc(-c2c(C)nn3c(C(C)C)c(C(=O)N[C@H]4CCc5ccccc54)cnc23)cn1 [Example 375]
**Result** 200

**Query** Then what about the compound Cc1nn2c(C(C)C)c(C(=O)N[C@H]3CCc4ccccc43)cnc2c1-c1ccc(N2CCOCC2)cc1 [Example 326] ?
**Result** 1260

**Query** Also Cc1nn2c(C(C)C)c(C(=O)N[C@H]3CCc4ccccc43)cnc2c1-c1cccc(OCC#N)c1 [Example 320] , if possible.
**Result** 50.1

**Query** Please answer likewise for Cc1nn2c(C(C)C)c(C(=O)N[C@H]3CCOc4ccccc43)cnc2c1-c1cc(Cl)ccc1Cl [Example 173]
**Result** 3.98

**Query** Can you handle Cc1nn2c(C(C)C)c(C(=O)N[C@H]3CCOc4ccccc43)cnc2c1-c1cccc(Cl)c1 [Example 117] next?
**Result** 5.01

**Query** Repeat with Cc1nn2c(C(C)C)c(C(=O)N[C@H]3CCCc4ccccc43)cnc2c1-c1ccccc1 [Example 175]
**Result** 63.1

**Query** Okay, and CC(C)c1c(C(=O)N[C@H]2CCc3ccccc32)cnc2c(-c3cccc(C(F)(F)F)c3)c(C(F)(F)F)nn12 [Example 91] ?
**Result** 63.1

**Query** Now the compound CC(C)c1c(C(=O)N[C@H]2CCOc3ccccc32)cnc2c(-c3cccc(F)c3F)c(Cl)nn12 [Example 281]
**Result** 5.01

From: patent US11001590B2
